Source: patent US20190106460A1

- Tested on: T1, HisβTrCP/Skp1 and HisβTrCP/GSTSkp1 (immobilised on NTA Biacore chip) (UniProt Q9Y297 175-605; P63208 1-163)
- T1 construct: SPR: KD values from both surfaces (with or without the GST moiety) were averaged to give the apparent KD; also called βTrCP surfaces
- T1 sequence (Q9Y297 175-605, chain 1 of 2): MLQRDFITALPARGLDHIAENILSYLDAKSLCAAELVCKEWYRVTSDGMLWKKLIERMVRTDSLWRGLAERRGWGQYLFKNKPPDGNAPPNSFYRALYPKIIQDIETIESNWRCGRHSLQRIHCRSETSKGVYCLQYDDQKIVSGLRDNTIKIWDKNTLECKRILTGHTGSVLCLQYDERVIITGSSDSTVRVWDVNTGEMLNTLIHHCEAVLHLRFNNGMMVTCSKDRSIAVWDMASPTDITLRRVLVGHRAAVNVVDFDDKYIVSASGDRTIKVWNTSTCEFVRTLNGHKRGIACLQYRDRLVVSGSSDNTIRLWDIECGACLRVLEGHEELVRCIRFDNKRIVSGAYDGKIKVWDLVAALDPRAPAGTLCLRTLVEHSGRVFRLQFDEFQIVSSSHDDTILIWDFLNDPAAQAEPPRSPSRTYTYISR
- T1 sequence (P63208 whole entry, chain 2 of 2): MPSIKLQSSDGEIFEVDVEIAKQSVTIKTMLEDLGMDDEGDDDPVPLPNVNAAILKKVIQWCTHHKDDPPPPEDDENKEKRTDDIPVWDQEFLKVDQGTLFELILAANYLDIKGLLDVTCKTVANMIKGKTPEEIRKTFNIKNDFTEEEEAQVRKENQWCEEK
- Experiment description: SPR (Biacore T200), single cycle run up to 1e-6 M, steady-state fit of the run shown; Rmax 2.093 RU, Chi² 0.0110 RU² [A]
Starred links: 1 amine or outer side, 2 acyl side, 3 side chain; linkers in the order of their positions; H or OH if unused. Non-standard residues stand in square brackets, D forms with d. *: point of attachment. E(Me) = COC(=O)CC[C@H](N[*:1])C(=O)[*:2]; Phe(3-Cl) = N[C@@H](Cc1cccc(Cl)c1)C(=O)O; Tos = Cc1ccc(S(=O)(=O)*)cc1
Measurement kind: pKd
Give bare numbers, as −log10 of the molar value.

Which pKd value is on record for Tos-[dD]EG[Phe(3-Cl)]W[E(Me)]-NH2 (also called UBP033) [Ts-dEGF(3Cl)WE(Me)-NH2] ?
7.66
